Taken from paper PMC8851638.

- Tested on: K. pneumoniae
- experiment-notes: Single-step resistance selection
- Format: cell-based
- condition: 4 × MIC, 48 h
Each entry below carries its reported Single-step resistance frequency (mutation frequency).

[Q] Which Single-step resistance frequency (mutation frequency) is listed for N#CC(=Cc1cn(-c2ccccc2)nc1-c1ccccc1)C1=NC(=O)CS1 ?
[A] 1.54 × 10^–9

----------
- Tested on: S. aureus
- experiment-notes: Checkerboard combination assay with Ciprofloxacin
- Format: cell-based, Staphylococcus aureus
# fractional inhibitory concentration index (FICI) per entry
Give your answer as a number; write no unit.

[Q] For the compound N#CC(=Cc1cn(-c2ccccc2)nc1-c1ccccc1)C1=NC(=O)CS1 , what fractional inhibitory concentration index (FICI) is on record?
[A] 0.25

[Q] fractional inhibitory concentration index (FICI) for N#CC(=Cc1ccccc1O)C1=NC(=O)C(=Cc2cn(-c3ccccc3)nc2-c2ccccc2)S1 ?
[A] 0.5

[Q] Can you share its fractional inhibitory concentration index (FICI)? I mean this compound: CCOC(=O)c1c(N)csc1-c1cn(-c2ccccc2)nc1-c1ccc(C)cc1
[A] 0.25

Others:
[Q] Query: fractional inhibitory concentration index (FICI); subject: Cc1c(NC(=O)CC2=NC(=O)CS2)c(=O)n(-c2ccccc2)n1C
[A] 0.5
